- System: rodent lifetime carcinogenesis bioassay, tumor incidence TD50
- experiment-summary: carcinogenic potency in animals, long-term in vivo studies, CPDB compilation (AID 1745844)
- stated-conditions: rat; strain Fischer 344; males; by gavage; site: multiple organs; lesion: mononuclear-cell leukemia; dosed 94 weeks; study length 104 weeks
reported-metric: TD50 (mg/kg/day)

>>> observed("CC(C)=CCl")
128

###

- Tested on: rodent lifetime carcinogenesis bioassay, tumor incidence TD50
- experiment-summary: carcinogenic potency in animals, long-term in vivo studies, CPDB compilation (AID 1745844)
- stated-conditions: mouse; strain Swiss albino; males; in drinking water; site: lung; lesion: several types; types named in the paper; dosed 90 weeks; study length 90 weeks
reported-metric: TD50

>>> observed("CCCCN(N)C=O")
"19.2 mg/kg/day"
